Test: Bioavailability in rat at 4 mg/kg, po and 4 mg/kg, iv
Assay type: ADME, organism-based
Conditions: in vivo
PROPERTY: bioavailability (%)

O=c1c(C2=Nc3ccccc3S(=O)(=O)N2)c(O)c2cc(F)ccc2n1CCC1CC1: 44
NC(=O)COc1ccc2c(c1)S(=O)(=O)NC(c1c(O)c3cc(F)ccc3n(CCC3CC3)c1=O)=N2: 33
C[C@@H](Oc1ccc2c(c1)S(=O)(=O)N=C(c1c(O)c3cc(F)ccc3n(CCC3CC3)c1=O)N2)C(N)=O: 35

---

Biological target: Cytochrome P450 2C9 (Homo sapiens)
Sequence (P11712 whole entry): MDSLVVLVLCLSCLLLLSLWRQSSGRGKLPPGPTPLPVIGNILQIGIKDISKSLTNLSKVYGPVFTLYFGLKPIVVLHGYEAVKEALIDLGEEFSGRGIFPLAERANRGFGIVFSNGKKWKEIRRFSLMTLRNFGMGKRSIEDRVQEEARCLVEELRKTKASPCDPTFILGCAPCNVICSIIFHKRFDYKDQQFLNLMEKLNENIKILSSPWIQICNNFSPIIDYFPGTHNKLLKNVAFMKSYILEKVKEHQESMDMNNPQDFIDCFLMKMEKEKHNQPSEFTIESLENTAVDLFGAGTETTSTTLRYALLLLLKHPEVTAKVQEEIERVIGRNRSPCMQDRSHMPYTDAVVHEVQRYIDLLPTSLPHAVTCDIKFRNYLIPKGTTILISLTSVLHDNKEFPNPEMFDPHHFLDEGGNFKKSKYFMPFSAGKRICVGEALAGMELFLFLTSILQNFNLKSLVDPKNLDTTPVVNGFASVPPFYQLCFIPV
PROPERTY: pIC50
# pIC50 = -log10(concentration in molar units)

*Q* I have this compound here, "C[C@@H](Oc1ccc2c(c1)S(=O)(=O)N=C(c1c(O)c3cc(F)ccc3n(CCC3CC3)c1=O)N2)C(N)=O" , and I need its recorded pIC50.
*A* 5.77

---

System: Hepatitis C virus
Assay: Antiviral activity against HCV 1b after 72 hrs by replicon assay in presence of HSA and AAG
Type: functional, organism-based, Hepacivirus hominis
Conditions: genotype 1b
PROPERTY: IC50 (µM)

NC(=O)COc1ccc2c(c1)S(=O)(=O)NC(c1c(O)c3cc(F)ccc3n(CCC3CC3)c1=O)=N2: 1.48
O=c1c(C2=Nc3ccccc3S(=O)(=O)N2)c(O)c2cc(F)ccc2n1CCC1CC1: 24.5

P: CNC(=O)COc1ccc2c(c1)S(=O)(=O)N=C(c1c(O)c3cc(F)ccc3n(CCC3CC3)c1=O)N2
Q: NC(=O)/C=C/c1ccc2c(c1)S(=O)(=O)N=C(c1c(O)c3cc(F)ccc3n(CCC3CC3)c1=O)N2
R: C[C@@H](Oc1ccc2c(c1)S(=O)(=O)N=C(c1c(O)c3cc(F)ccc3n(CCC3CC3)c1=O)N2)C(N)=O
*Q* Could you please order the items by IC50, going from the lowest number to the highest? Labels, requested order.
*A* R, P, Q

P: CC(C)CCn1c(=O)c(C2=NS(=O)(=O)c3cc(N)ccc3N2)c(O)c2ccccc21
Q: CC(C)(Oc1ccc2c(c1)S(=O)(=O)N=C(c1c(O)c3cc(F)ccc3n(CCC3CC3)c1=O)N2)C(N)=O
*Q* Param metric = IC50; output whichever of P , Q has the minimum value. Field: selected label. Fill in the label of the entry you choose.
*A* Q
(Q: 5.36 µM, P: 45 µM)

I: CC(C)CCn1c(=O)c(C2=NS(=O)(=O)c3cc(CC#N)ccc3N2)c(O)c2cc(F)ccc21
II: C[C@H](Oc1ccc2c(c1)S(=O)(=O)N=C(c1c(O)c3cc(F)ccc3n(CCC3CC3)c1=O)N2)C(N)=O
*Q* Compare I and II by numeric IC50 and name the larger one. Field: selected label. Fill in the label of the entry you choose.
*A* II
(II: 50 µM, I: 8 µM)

P: CC(C)CCn1c(=O)c(C2=NS(=O)(=O)c3cc(CC(N)=O)ccc3N2)c(O)c2ccccc21
Q: O=c1c(C2=NS(=O)(=O)c3cc(O)ccc3N2)c(O)c2cc(F)ccc2n1CCC1CC1
*Q* Param metric = IC50; output whichever of P , Q has the minimum value. Field: selected label. Fill in the label of the entry you choose.
*A* P

---

Organism: Homo sapiens
Experiment: Protein binding in human plasma by equilibrium dialysis
Details: read-out: PPB (converted)
PROPERTY: fraction unbound

I: C[C@@H](Oc1ccc2c(c1)S(=O)(=O)N=C(c1c(O)c3cc(F)ccc3n(CCC3CC3)c1=O)N2)C(N)=O
II: NC(=O)COc1ccc2c(c1)S(=O)(=O)NC(c1c(O)c3cc(F)ccc3n(CCC3CC3)c1=O)=N2
*Q* Param metric = fraction unbound; output whichever of I , II has the minimum value. Field: selected label. Fill in the label of the entry you choose.
*A* II
(II: 0.001, I: 0.002)
